For each of the compounds below, state its viability at 30 min.
- experiment.summary: CellTiter-Glo 2.0 cell viability assay
- Type: cell-based
- details: human, HEK293T cells, pH 7.4; at the compound's AC1/CaM NanoBiT IC50 concentration; read-out: % Viable Cells at AC1 IC50
Where a name gives a salt, the structure may show the parent alone.
Numbers only, in %.

{"columns": ["compound", "unit.label", "viability at 30 min"],
 "data": [
  ["CCCCCCCCCCCCCCCC[N+](C)(C)CCN(Cc1ccc(OC)cc1)c1ncccn1", "%", 100],
  ["O=S(=O)(Nc1ccc2c(c1)N(S(=O)(=O)c1ccc(F)cc1)CCC2)c1cccc(F)c1", "%", 100],
  ["CC(=O)Oc1c(Sc2ccc(Cl)cc2)c(C)nn1C(C)(C)C", "%", 96]
]}

Record viability at 30 min for all entries; do not skip any.
1. O=C1c2c(O)ccc(O)c2C(=O)c2c(NCCNCCO)ccc(NCCNCCO)c21 [Compound 11, Mitoxantrone HCl]
2. CCC12CN3CC(CC)(CN(C1)C31C(=O)N(C)c3ccc(Br)cc31)C2=O (centres unmarked)

// result
1. 87
2. 100

====

For each of the compounds below, state its viability at 30 min.
- experiment.summary: CellTiter-Glo 2.0 cell viability assay
- Format: cell-based
- details: human, HEK293T cells, pH 7.4; at the compound's AC1/CaM NanoBiT IC50 concentration; read-out: % Viable Cells at AC1 IC50
Structures can show the parent of a compound that is named as a salt.
Give bare numbers, in %.

Record viability at 30 min for all entries; do not skip any.
1. CNC(=O)C1=C(Nc2ccc(N(C)C)cc2)c2ccccc2S1(=O)=O
2. [H]/N=C(\N/C(=N/[H])NCCCCCCNC(=N)NC(=N)Nc1ccc(Cl)cc1)Nc1ccc(Cl)cc1 [Compound 9, Chlorhexidine HCl]

// result
1: 100; 2: 80

Record viability at 30 min for all entries; do not skip any.
1. Cc1cc2nc3ccc(N(C)C)cc3[s+]c2cc1N [Compound 1, Tolonium Chloride]
2. CC1=C(CCC(=O)O)c2cc3[nH]c(cc4nc(cc5[nH]c(cc1n2)c(C)c5C(C)O)C(C)=C4C(C)O)c(C)c3CCC(=O)O (stereo not shown)
3. CCc1oc2ccccc2c1C(=O)c1cc(Br)c(O)c(Br)c1
4. CN(C)c1ccc2nc3ccc(=[N+](C)C)cc-3sc2c1
5. CCc1cc(C(c2cccs2)N2CCN(C)CC2)c(NC(=O)c2ccco2)s1 (stereo not shown)

// result
1: 80; 2: 95; 3: 90; 4: 86; 5: 100

====

For each of the molecules below, state its Ki ratio (AC8 NT/AC1).
- measured.on: AC8-Nt/CaM (Homo sapiens, UniProt P0DP23)
- Construct: made in house; host or cells: E. coli BL21-CodonPlus (DE3)-RIPL
- experiment.summary: AC8-Nt/CaM FP counterscreen assay;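 also: fluorescence polarization of AC peptide binding GST-CaM in HEPES buffer with CaCl2, compound preincubated with CaM 30 min, peptide read after 2 h at room temperature in dark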
- Type: binding
- details: ratio >1: more potent in AC1/CaM FP
Structures can show the parent of a compound that is named as a salt.
Give bare numbers.

{"columns": ["molecule", "measured.on", "assay.readout", "measured.result"],
 "data": [
  ["CCCCC(CC)CNC(=N)NC(=N)NCCCCCCNC(=N)NC(=N)NCC(CC)CCCC (centres unmarked)", "AC8-Nt/CaM (Homo sapiens, UniProt P0DP23)", "Ki ratio (AC8 NT/AC1)", 1.6],
  ["[H]/N=C(\\N/C(=N/[H])NCCCCCCNC(=N)NC(=N)Nc1ccc(Cl)cc1)Nc1ccc(Cl)cc1 [Compound 9, Chlorhexidine HCl]", "AC8-Nt/CaM (Homo sapiens, UniProt P0DP23)", "Ki ratio (AC8 NT/AC1)", 2.7],
  ["CCCCCCCCOc1ccccc1C(=O)Nc1ccc(C(=O)OCC[N+](C)(CC)CC)cc1", "AC8-Nt/CaM (Homo sapiens, UniProt P0DP23)", "Ki ratio (AC8 NT/AC1)", 1.6],
  ["O=C1c2c(O)ccc(O)c2C(=O)c2c(NCCNCCO)ccc(NCCNCCO)c21 [Compound 11, Mitoxantrone HCl]", "AC8-Nt/CaM (Homo sapiens, UniProt P0DP23)", "Ki ratio (AC8 NT/AC1)", 6.3],
  ["CNC(=O)C1=C(Nc2ccc(N(C)C)cc2)c2ccccc2S1(=O)=O", "AC8-Nt/CaM (Homo sapiens, UniProt P0DP23)", "Ki ratio (AC8 NT/AC1)", 0.58],
  ["Cc1cc2nc3ccc(N(C)C)cc3[s+]c2cc1N [Compound 1, Tolonium Chloride]", "AC8-Nt/CaM (Homo sapiens, UniProt P0DP23)", "Ki ratio (AC8 NT/AC1)", 7.9],
  ["CN(C(=O)CN(CCO)CC(=O)N(C)C(C)(C)Cc1ccccc1)C(C)(C)Cc1ccccc1", "AC8-Nt/CaM (Homo sapiens, UniProt P0DP23)", "Ki ratio (AC8 NT/AC1)", 8.0],
  ["CCCCCCCCCCCCCCCC[N+](C)(C)CCN(Cc1ccc(OC)cc1)c1ncccn1", "AC8-Nt/CaM (Homo sapiens, UniProt P0DP23)", "Ki ratio (AC8 NT/AC1)", 2.7]
]}

// query Indicate its recorded Ki ratio (AC8 NT/AC1); the molecule in question is CC1=C(CCC(=O)O)c2cc3[nH]c(cc4nc(cc5[nH]c(cc1n2)c(C)c5C(C)O)C(C)=C4C(C)O)c(C)c3CCC(=O)O (centres unmarked)
// result 17.8

====

- measured.on: AC1 (Homo sapiens, UniProt Q08828)
- Construct: expressed in transfected cells
- Sequence (Q08828 whole entry): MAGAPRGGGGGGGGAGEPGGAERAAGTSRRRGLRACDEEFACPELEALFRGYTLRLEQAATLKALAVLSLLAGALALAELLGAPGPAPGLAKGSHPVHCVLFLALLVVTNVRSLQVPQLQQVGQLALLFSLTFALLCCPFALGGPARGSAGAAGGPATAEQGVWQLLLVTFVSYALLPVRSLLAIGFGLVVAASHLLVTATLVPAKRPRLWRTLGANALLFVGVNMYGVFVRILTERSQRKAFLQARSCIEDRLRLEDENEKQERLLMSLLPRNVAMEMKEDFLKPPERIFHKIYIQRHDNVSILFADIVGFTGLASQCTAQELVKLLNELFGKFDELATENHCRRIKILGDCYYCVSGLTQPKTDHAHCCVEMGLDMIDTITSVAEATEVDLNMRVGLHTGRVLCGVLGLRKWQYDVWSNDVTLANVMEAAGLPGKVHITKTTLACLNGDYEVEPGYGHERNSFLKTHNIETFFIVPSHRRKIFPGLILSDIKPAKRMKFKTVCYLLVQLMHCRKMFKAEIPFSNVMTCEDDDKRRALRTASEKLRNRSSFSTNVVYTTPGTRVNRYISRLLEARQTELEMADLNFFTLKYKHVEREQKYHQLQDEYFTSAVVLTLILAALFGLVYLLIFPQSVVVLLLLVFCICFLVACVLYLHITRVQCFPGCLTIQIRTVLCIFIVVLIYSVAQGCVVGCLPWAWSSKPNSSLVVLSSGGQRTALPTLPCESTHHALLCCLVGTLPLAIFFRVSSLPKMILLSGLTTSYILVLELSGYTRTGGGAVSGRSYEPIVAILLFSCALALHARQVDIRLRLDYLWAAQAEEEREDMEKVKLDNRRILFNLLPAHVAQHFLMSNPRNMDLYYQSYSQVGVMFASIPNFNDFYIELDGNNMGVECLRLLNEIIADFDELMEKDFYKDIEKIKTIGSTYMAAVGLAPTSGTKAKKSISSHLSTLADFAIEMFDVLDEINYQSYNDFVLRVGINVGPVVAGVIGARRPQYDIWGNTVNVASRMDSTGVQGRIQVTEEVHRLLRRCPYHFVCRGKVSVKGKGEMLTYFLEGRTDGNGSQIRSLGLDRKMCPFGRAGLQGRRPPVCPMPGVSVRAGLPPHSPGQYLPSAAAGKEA
- experiment.summary: cAMP accumulation assay, AC1-HEK Δ3/6 KO cells
- Assay type: cell-based
- details: initial characterization of hits; data not shown
For each of the compounds below, state its inhibition of AC1 activity (efficacy).

{"columns": ["compound", "measured.on", "inhibition of AC1 activity (efficacy)"],
 "data": [
  ["O=S(=O)(Nc1ccc2c(c1)N(S(=O)(=O)c1ccc(F)cc1)CCC2)c1cccc(F)c1 [Compound 18]", "AC1 (Homo sapiens, UniProt Q08828)", "~70%"]
]}

Record inhibition of AC1 activity (efficacy) for all entries; do not skip any.
1. Cn1cc(C(=O)Nc2ccc(Cl)cc2Cl)c2[nH]c(=O)n(-c3ccc(Cl)cc3)c(=O)c21 [Compound 21]
2. CCc1cc(C(c2cccs2)N2CCN(C)CC2)c(NC(=O)c2ccco2)s1 (stereo not shown) [Compound 15]

// result
~50%
~75%

// query State the measured inhibition of AC1 activity (efficacy) (AC1 (Homo sapiens, UniProt Q08828)) of CCc1oc2ccccc2c1C(=O)c1cc(Br)c(O)c(Br)c1 [Compound 12, Benzbromarone]
// result ~75%

====

- experiment.summary: CellTiter-Glo 2.0 cell viability assay;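 also: luminescence read-out after 30 min compound exposure at 37 °C in HEPES-buffered HBSS, scaled to vehicle-treated cells as 100% and cell-free buffer wells as 0%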
- Type: cell-based
- details: human, HEK293T cells, pH 7.4; at the compound's AC1/CaM NanoBiT IC50 concentration; read-out: % Viable Cells at AC1 IC50
assay.readout: viability at 30 min (%)
Numbers only, in %.

{"columns": ["compound", "unit.label", "measured.result"],
 "data": [
  ["CN(C(=O)CN(CCO)CC(=O)N(C)C(C)(C)Cc1ccccc1)C(C)(C)Cc1ccccc1", "%", 93.3],
  ["CCCCC(CC)CNC(=N)NC(=N)NCCCCCCNC(=N)NC(=N)NCC(CC)CCCC (stereo not shown)", "%", 75],
  ["CCCCCCCCOc1ccccc1C(=O)Nc1ccc(C(=O)OCC[N+](C)(CC)CC)cc1", "%", 96]
]}

For the next question, use this compound.
// query Indicate its recorded viability at 30 min; the compound in question is Cn1cc(C(=O)Nc2ccc(Cl)cc2Cl)c2[nH]c(=O)n(-c3ccc(Cl)cc3)c(=O)c21
// result 100

====

- measured.on: AC1-C1b/CaM (Homo sapiens)
- Construct: made in house; host or cells: E. coli BL21-CodonPlus (DE3)-RIPL
- experiment.summary: AC1-C1b/CaM fluorescence polarization (FP) assay
- Type: binding
- details: Cheng-Prusoff from FP IC50 and Kd
Counter-ions that a name gives are not always drawn.
Categorized via Ki: lower range = under 4 µM, middle range = from 4 µM up to 8 µM, upper range = 8 µM and over

{"columns": ["molecule", "measured.on", "class.assignment"],
 "data": [
  ["CN(C)c1ccc2nc3ccc(=[N+](C)C)cc-3sc2c1", "AC1-C1b/CaM (Homo sapiens)", "lower range"],
  ["[H]/N=C(\\N/C(=N/[H])NCCCCCCNC(=N)NC(=N)Nc1ccc(Cl)cc1)Nc1ccc(Cl)cc1 [Compound 9, Chlorhexidine HCl]", "AC1-C1b/CaM (Homo sapiens)", "middle range"],
  ["Cc1ccc(S(=O)(=O)Nc2cc(N3CCCS3(=O)=O)ccc2C)cc1", "AC1-C1b/CaM (Homo sapiens)", "upper range"]
]}

// query Which Ki category applies to CN(C(=O)CN(CCO)CC(=O)N(C)C(C)(C)Cc1ccccc1)C(C)(C)Cc1ccccc1 here?
// result middle range

// query Which Ki category applies to CCc1cc(C(c2cccs2)N2CCN(C)CC2)c(NC(=O)c2ccco2)s1 (stereo not shown) here?
// result middle range

// query Which Ki category applies to CN1CCN(CCNC(=O)c2cc3c(=O)n(C)c(=O)n(C)c3s2)CC1 here?
// result upper range

// query Which Ki category applies to CCC12CN3CC(CC)(CN(C1)C31C(=O)N(C)c3ccc(Br)cc31)C2=O (stereo not shown) here?
// result upper range

// query Which Ki category applies to CCCCCCCCCCCCCCCC[N+](C)(C)CCN(Cc1ccc(OC)cc1)c1ncccn1 here?
// result lower range

// query Which Ki category applies to CC1=C(CCC(=O)O)c2cc3[nH]c(cc4nc(cc5[nH]c(cc1n2)c(C)c5C(C)O)C(C)=C4C(C)O)c(C)c3CCC(=O)O (stereo not shown) here?
// result lower range

// query Which Ki category applies to CNC(=O)C1=C(Nc2ccc(N(C)C)cc2)c2ccccc2S1(=O)=O here?
// result upper range

// query Which Ki category applies to Cc1cc2nc3ccc(N(C)C)cc3[s+]c2cc1N [Compound 1, Tolonium Chloride] here?
// result lower range

Data origin: paper PMC9486168
